# Assay Protocol: protein stability index of a GFP-peptide fusion (yeast GPS) (PSI 1-4); higher = more stable; sorted into four equal gates, so the index is relative within each strain
# Run Conditions: san1∆
Rule: met for protein stability index not less than 3, not met for anything less.

Solved entries:
| Polymer Sequence | Group |
| --- | --- |
| IIDHIPGHSLLLSIKLP [SNF5] | not met |
| IGFTIKEYENHSGELMR [SMC1] | not met |
| LRRSGQIANDPSKKRRR [SMD1] | not met |
| TAEFGKILAGLHDTQIE [RPN10] | met |
| GDYNNTVYSSEQYIQEL [SMC3] | met |

Incoming: Is it the case that SAAASESDVAKQLASFG [RPL16B] has protein stability index reaching or exceeding 3?
Outgoing: not met

Incoming: Is it the case that RQGLIHQGSGGSVMSAS [SMC3] has protein stability index reaching or exceeding 3?
Outgoing: not met

Incoming: Is it the case that QERKDFLKKVMDTIQDK [ECM29] has protein stability index reaching or exceeding 3?
Outgoing: met

Incoming: Is it the case that AAAAVCEKWAASSWAKK [RPL14A] has protein stability index reaching or exceeding 3?
Outgoing: not met

Incoming: Is it the case that YITAKNNVVINFKDMSH [PRP8] has protein stability index reaching or exceeding 3?
Outgoing: not met

Incoming: Is it the case that DLRIRIKLDIVVGQNQL [SNF5] has protein stability index reaching or exceeding 3?
Outgoing: not met

Incoming: Is it the case that EEERRKKRESGVEEEEE [SNF2] has protein stability index reaching or exceeding 3?
Outgoing: met

Incoming: Is it the case that DRREKAERTMSKKETKL [SMC2] has protein stability index reaching or exceeding 3?
Outgoing: met

Incoming: Is it the case that DFIGHNSNINTLTASPD [ASC1] has protein stability index reaching or exceeding 3?
Outgoing: not met

Incoming: Is it the case that VGVIIFILTIATAFLGY [COB] has protein stability index reaching or exceeding 3?
Outgoing: not met

Incoming: Is it the case that EHIKQDYVASLNELYQT [NSL1] has protein stability index reaching or exceeding 3?
Outgoing: not met

----------
# Assay Protocol: protein stability index of a GFP-peptide fusion (yeast GPS) (PSI 1-4); higher = more stable; sorted into four equal gates, so the index is relative within each strain
# Run Conditions: san1∆
Measurement Type: protein stability index

Here are 8 sequences together with their reported answers.
| Polymer Sequence | protein stability index |
| --- | --- |
| LLVDKDANGVSLFELIV [YJL039C/NUP192] | 3.07 |
| KNKPELYQIDYLGTKVE [PRE1] | 3.09 |
| DDALHAKKLPNGNWEVG [DIS3] | 2.94 |
| NSSEKNNNNNNNNNNNN [MED2] | 2.95 |
| LLFKARLQQQQAQAQAQ [GAL11] | 1.3 |
| KFKLLNGLAIRRAAYGV [RPS3] | 1.88 |
| SSVNEDTFLPPPPPPPS [PRP8] | 2.44 |
| ELQMRSFLKEGDLLNAE [RRP4] | 3.07 |

Entry DELDAIGTKRFDSEKSG [RPT5] , protein stability index reported as 2.25

Entry GMTPCTVSPDFVAATTN [FAS1] , protein stability index reported as 1.86

Entry KRDQYLKSASKETAPVI [RPL28] , protein stability index reported as 2.59

Entry DIWRVAGKFELLDRILP [SNF2] , protein stability index reported as 2.02

Entry LFQVESAPKISSEIDRE [SIR4] , protein stability index reported as 2.37

Entry CERRSTLKLQDTRITPS [PRE6] , protein stability index reported as 3.09

Entry EIIPLQDYYIIGANIYQ [MED6] , protein stability index reported as 3.16

Entry KFSLPFEQKGSQTTTND [YLR335W/NUP2] , protein stability index reported as 3.11

Entry RYSNLVCKKADVDLHKR [RPS18A] , protein stability index reported as 3.58
